Values from paper PMC11714206

- SUBJECT_OF_TEST: MyD88^TIR (Homo sapiens, UniProt Q99836)
- Construct: MyD88 (residues 148–296); 6xHis; made in house; host or cells: E. coli BL21 (DE3)
- Sequence (Q99836 148-296): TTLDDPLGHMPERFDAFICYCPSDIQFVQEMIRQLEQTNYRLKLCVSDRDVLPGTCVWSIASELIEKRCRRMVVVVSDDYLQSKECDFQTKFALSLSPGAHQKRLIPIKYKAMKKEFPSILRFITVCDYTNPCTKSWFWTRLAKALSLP
- PROTOCOL_DESCRIPTION: T‐Surf phage library (P8 and P3) selection against MyD88^TIR, four rounds, NGS read counts
- Assay type: binding
- RECORDED_CONDITIONS: P8_MyD88: rank by count after grouping
Labelling field: enter satisfied if recorded Rank (after) is less than 200. Enter not satisfied if it equals or exceeds that cut-off.

primary_sequence=YAASPWWFDELVKTVR class_name="not satisfied"
primary_sequence=EDTLIRLLVQRIMKEL class_name=satisfied
primary_sequence=PQDLEWFYERLFSQM class_name=satisfied
primary_sequence=YLQDLDWFYERLVSLF class_name="not satisfied"
primary_sequence=DPQGRDWFYERLVSLF class_name="not satisfied"
primary_sequence=LGYHWIDWEYYVGTED class_name="not satisfied"
primary_sequence=VQWEDPWFWDKLAYEM class_name="not satisfied"
primary_sequence=DWLPGRTLFENLWASV class_name=satisfied
primary_sequence=YASSSWALDELLKILYANETM class_name=satisfied
primary_sequence=SWYLDEVAKIIDAMKE class_name=satisfied
primary_sequence=DPQDLDWFYEHLVSLL class_name=satisfied
primary_sequence=TSHFLDSYWAMFELNM class_name=satisfied
primary_sequence=VANILGYHWIAREHFV class_name="not satisfied"
primary_sequence=WDFASDMEQVWDRLYY class_name="not satisfied"
primary_sequence=SAAYDDIWERLNRMIE class_name="not satisfied"
primary_sequence=DPQVRDWFYERAVSLF class_name="not satisfied"
primary_sequence=DPQDLDWFYERLVSQM class_name=satisfied
primary_sequence=SSRWALDELVHIMQAL class_name=satisfied
primary_sequence=DPQELEGVYERLVSLF class_name="not satisfied"
primary_sequence=DPQDLDWFYERLASLL class_name=satisfied
primary_sequence=YASSTWALDELLQIFE class_name=satisfied
primary_sequence=DFLNWFIAPNSTVIEN class_name="not satisfied"
primary_sequence=GFIDNLYQALANMGIH class_name=satisfied
primary_sequence=NYADSSWALDELLAIM class_name=satisfied
primary_sequence=EWVWDYLLPNLESPAG class_name="not satisfied"
primary_sequence=ELDFSHFWLFDGQATGEA class_name=satisfied
primary_sequence=DPQDLQSLYEGLVSLV class_name="not satisfied"
primary_sequence=DVLYWALTEAGIRVFR class_name=satisfied
primary_sequence=AEFWERLRMTVLETME class_name="not satisfied"
primary_sequence=DFRSHLIETFGRMFIN class_name="not satisfied"
primary_sequence=EGFTGFLYEALTRYGI class_name=satisfied
primary_sequence=DPQDLDCFYERLVNLF class_name="not satisfied"
primary_sequence=YASSSWALNELLEILDAKETM class_name="not satisfied"
primary_sequence=WALNELLKILHARELF class_name="not satisfied"
primary_sequence=WKNALANIAEILGFEL class_name=satisfied
primary_sequence=MDYLLRILHSSNFTTF class_name=satisfied
primary_sequence=NFANSSWALDELWLIL class_name=satisfied
primary_sequence=DPQDLDWFYKRLVSLL class_name=satisfied
primary_sequence=ASSSFALDQLSYFLSL class_name=satisfied
primary_sequence=WALRELEAILQSFQLS class_name=satisfied
primary_sequence=YAASPWWFDELVRIVC class_name="not satisfied"
primary_sequence=DPQDLDWFYERLVSPL class_name=satisfied
primary_sequence=DPQDLVWYYERLVSLF class_name="not satisfied"
primary_sequence=EWVKNSLLQYLDSQFE class_name=satisfied
primary_sequence=LGYRWIVWEYFVGIED class_name="not satisfied"
primary_sequence=PQDLGWFYERLISQILK class_name="not satisfied"
primary_sequence=SSSFALHELATILEAL class_name="not satisfied"
primary_sequence=DSWTSAALYEALHALL class_name=satisfied
primary_sequence=NDSLFWDRLLYSLHVTE class_name=satisfied
primary_sequence=SSAWALNELVQIMKAW class_name="not satisfied"
primary_sequence=LGYHWLDWEYFVSIED class_name="not satisfied"
primary_sequence=NFGYSTWALDELVKIM class_name=satisfied
primary_sequence=DSDPGSDLLIKIWAAL class_name=satisfied
primary_sequence=WILRAIWNSFGIVCI class_name="not satisfied"
primary_sequence=DWVLDYLLPNLERPAG class_name="not satisfied"
primary_sequence=WALDEVLQILRARELF class_name="not satisfied"
primary_sequence=VASHWALEELRMIMDF class_name=satisfied
primary_sequence=DPQDQEWFYERLFSHV class_name="not satisfied"
primary_sequence=SEDTRNNFLYHLYEAL class_name=satisfied
primary_sequence=DPQDLDWCYERLVSRC class_name="not satisfied"
primary_sequence=DPHDLDWFYERLVSLL class_name=satisfied
primary_sequence=DPQDLDWFYERQVSLL class_name=satisfied
primary_sequence=WWIQALAEVANMAGED class_name=satisfied
primary_sequence=DPQDLDWFYERLVNLL class_name=satisfied
primary_sequence=AWTDDPVGQLFFWESL class_name=satisfied
primary_sequence=WALDELLQILNAREMF class_name="not satisfied"
primary_sequence=DPQGLDWFYERLFSQM class_name="not satisfied"
primary_sequence=DPQDLDWFYEHLFSQM class_name="not satisfied"
primary_sequence=IFISHLYNSLTNAGIY class_name=satisfied
primary_sequence=WDFASNMEQLLDRLYY class_name="not satisfied"
primary_sequence=WALQELLEILKANREL class_name=satisfied
primary_sequence=YASYDDNDYYWVTHVLLRPM class_name=satisfied
primary_sequence=PQELEWFYERPVSLML class_name="not satisfied"

----------
- SUBJECT_OF_TEST: MyD88^TIR (Homo sapiens)
- Construct: MyD88 (residues 148–296); 6xHis; made in house; host or cells: E. coli BL21 (DE3)
- PROTOCOL_DESCRIPTION: T‐Surf phage library (P8 and P3) selection against MyD88^TIR, four rounds, NGS read counts
- Assay type: binding
- RECORDED_CONDITIONS: P8_MyD88: rank by NGS read count before grouping
Each record's Rank (before) is compared with lo = under 2000, med = from 2000 up to 3000, hi = 3000 and over to give its class.

primary_sequence=WALNELLKILQAKIFL class_name=lo
primary_sequence=PQELECIYKRLVSLIL class_name=hi
primary_sequence=WDFASNMEQLWERLYY class_name=lo
primary_sequence=SAAYYEFGERLIGRVE class_name=hi
primary_sequence=VANIGLIGSILWALK class_name=med
primary_sequence=WDFASNMNSFGIVCI class_name=lo
primary_sequence=DWVWEYLLPNVERPEG class_name=med
primary_sequence=SPLSYMWLDELVEIME class_name=hi
primary_sequence=DPQDLVWFYKRLFSQM class_name=med
primary_sequence=DPQDLEWNFERPVSLF class_name=med
primary_sequence=YASSSWALLELSKIFEAM class_name=lo
primary_sequence=DFLKWDNEAIMIKKIA class_name=med
primary_sequence=PQDLVWFFEGLVSLIL class_name=hi
primary_sequence=RGFHWTEWENFVDIED class_name=hi
primary_sequence=DPQDLVWFYERLVSIV class_name=med
primary_sequence=DWEWDYRLPNLEGPPG class_name=med
primary_sequence=DPQDLECFYERRVSLF class_name=med
primary_sequence=DPPDLDWCYQRLVNLP class_name=med

----------
Reported P8_MAL Rank (after) by item:
- SUBJECT_OF_TEST: MAL^TIR (Homo sapiens)
- Construct: MAL (residues 79–221); 6xHis; made in house; host or cells: E. coli BL21 (DE3)
- Sequence (P58753 79-221): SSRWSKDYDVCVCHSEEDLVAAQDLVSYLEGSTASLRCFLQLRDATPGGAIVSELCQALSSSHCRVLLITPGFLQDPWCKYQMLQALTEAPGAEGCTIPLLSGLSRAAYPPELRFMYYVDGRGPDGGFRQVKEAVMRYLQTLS
- PROTOCOL_DESCRIPTION: T‐Surf phage library (P8 and P3) selection against MAL^TIR, four rounds, NGS read counts
- Assay type: binding
- RECORDED_CONDITIONS: P8 library, 4R selection against MAL, rank after grouping
RESULT_TYPE: P8_MAL Rank (after)

primary_sequence=RNNFLGYLYQALYRIG recorded_value=604
primary_sequence=AFFCTHLKSVLDNPTM recorded_value=623
primary_sequence=LVFWESLKHLLRSDDR recorded_value=636
primary_sequence=RNYVAYLFQALANTGI recorded_value=579
primary_sequence=TFLGHLYMRWCRRAF recorded_value=625
primary_sequence=SFMLKFRTVLHHVHDV recorded_value=583
primary_sequence=TFLGHLYNALLRSDGR recorded_value=654
primary_sequence=ALLYTFLIHLTHPTNS recorded_value=594
primary_sequence=YFLHLLLFSRPETVYI recorded_value=615
primary_sequence=AFYGPLLSLILRDTKM recorded_value=641
primary_sequence=LFFGKALNSCCVAIA recorded_value=649
primary_sequence=TFLGHLYNTLVQPAIH recorded_value=620
primary_sequence=WFYERLVGLILRETEG recorded_value=660
primary_sequence=LFFGASLKQLLRSDGR recorded_value=580
primary_sequence=TFLYTFLINLTHPTNY recorded_value=674
primary_sequence=WFYERLVNLILRDTIV recorded_value=668
primary_sequence=YFLQFLVFRRLGNEYV recorded_value=656
primary_sequence=FTLSVHVRNWLAGAFI recorded_value=606
primary_sequence=AFLYTFLINLPHTNNF recorded_value=628
primary_sequence=SFLHFLLFSRPETASI recorded_value=642
primary_sequence=AFFRDQLRTVLGKPTM recorded_value=609
primary_sequence=AFFWEQMRTVLGKPTT recorded_value=612
primary_sequence=RFYEAQLILVLRNTKM recorded_value=672
primary_sequence=WFYGRLVSLMLRDAKR recorded_value=595
primary_sequence=LFLGESLKLLRRSDGR recorded_value=652
primary_sequence=LFYERLVSLILRHTRV recorded_value=624
primary_sequence=YFLHFRLLSRPETEYI recorded_value=643
primary_sequence=AFLDPFLINLIQASIL recorded_value=616
primary_sequence=WFYERLVRLILRDNKV recorded_value=607
primary_sequence=LFFWASLNKLLRSDGR recorded_value=648
primary_sequence=SFLGHLYNALVQADIH recorded_value=664
primary_sequence=RDFVAYLCQALANKGI recorded_value=626
primary_sequence=RDFVAYLFQALANKGL recorded_value=640
primary_sequence=WFYDRLVRLILRDTKV recorded_value=647
